Target: UniProt P35869
Sequence (P35869 11-848): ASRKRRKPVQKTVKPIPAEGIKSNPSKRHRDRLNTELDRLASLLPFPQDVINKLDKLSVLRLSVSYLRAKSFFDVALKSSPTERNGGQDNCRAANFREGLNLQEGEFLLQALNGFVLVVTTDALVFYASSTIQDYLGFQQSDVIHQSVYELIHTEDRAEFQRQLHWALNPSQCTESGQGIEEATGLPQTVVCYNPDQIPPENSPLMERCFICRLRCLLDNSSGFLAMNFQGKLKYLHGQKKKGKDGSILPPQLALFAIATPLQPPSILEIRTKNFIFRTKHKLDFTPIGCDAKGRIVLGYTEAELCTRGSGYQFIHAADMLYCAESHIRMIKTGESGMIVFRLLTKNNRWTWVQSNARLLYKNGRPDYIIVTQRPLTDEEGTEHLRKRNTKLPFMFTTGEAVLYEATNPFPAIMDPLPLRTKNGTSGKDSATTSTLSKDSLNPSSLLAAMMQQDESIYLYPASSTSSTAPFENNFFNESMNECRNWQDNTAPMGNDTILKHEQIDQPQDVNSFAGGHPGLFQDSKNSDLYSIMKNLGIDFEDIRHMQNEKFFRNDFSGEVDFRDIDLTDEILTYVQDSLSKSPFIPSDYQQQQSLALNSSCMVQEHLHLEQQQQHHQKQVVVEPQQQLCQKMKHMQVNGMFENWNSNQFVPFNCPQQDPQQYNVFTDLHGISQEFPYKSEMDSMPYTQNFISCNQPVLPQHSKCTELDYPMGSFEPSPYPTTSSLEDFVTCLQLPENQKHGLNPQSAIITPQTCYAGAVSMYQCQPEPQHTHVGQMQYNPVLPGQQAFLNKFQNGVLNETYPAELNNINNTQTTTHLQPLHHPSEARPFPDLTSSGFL
Assay: Reporter gene assay in AZ-AHR cells, antagonist analyses against TCDD, BaP, FICZ
Details: Table 1 summary class
observation type: Antagonism (IC50)

[[record]]
molecule = "c1ccc2[nH]ccc2c1"
target_system = "UniProt P35869"
result = "yes–all ligands"

[[record]]
molecule = "O=C(O)/C=C/c1c[nH]c2ccccc12 [IAC, indole-3-acrylate]"
target_system = "UniProt P35869"
result = "none"

[[record]]
molecule = "Cc1c[nH]c2ccccc12"
target_system = "UniProt P35869"
result = "ligand selective"

[[record]]
molecule = "O=Cc1c[nH]c2ccccc12"
target_system = "UniProt P35869"
result = "yes–all ligands"

[[record]]
molecule = "NCCc1c[nH]c2ccccc12"
target_system = "UniProt P35869"
result = "yes–all ligands"

[[record]]
molecule = "O=C(O)CCc1c[nH]c2ccccc12 [IPA, indole-3-propionate]"
target_system = "UniProt P35869"
result = "none"

[[record]]
molecule = "O=C(O)C(=O)Cc1c[nH]c2ccccc12 [IPY, indole-3-pyruvate]"
target_system = "UniProt P35869"
result = "ligand selective"


* * *

Target: UniProtKB P35869
Test: Immunofluorescence detection of nuclear translocation of the AhR in LS180 cells
Assay type: cell-based
Set-up: 0.1% V/V), TCDD (10 nM), and test MICT; host or cells: LS180 cells
Conditions: LS180, 90 min, exp 2; TCDD 10 nM, Indole 1 mM, IAC 100 µM, others 200 µM
Listed next: entries and their corresponding % positive AhR nuclei.
observation type: % positive AhR nuclei

[[record]]
molecule = "O=C(O)C(=O)Cc1c[nH]c2ccccc12 [IPY, indole-3-pyruvate]"
target_system = "UniProtKB P35869"
result = "60%"

[[record]]
molecule = "NCCc1c[nH]c2ccccc12 [TA, tryptamine]"
target_system = "UniProtKB P35869"
result = "65%"

[[record]]
molecule = "O=C(O)/C=C/c1c[nH]c2ccccc12 [IAC, indole-3-acrylate]"
target_system = "UniProtKB P35869"
result = "61%"

[[record]]
molecule = "Clc1cc2c(cc1Cl)Oc1cc(Cl)c(Cl)cc1O2 [TCDD, 2,3,7,8-tetrachlorodibenzo-p-dioxin, reference compound]"
target_system = "UniProtKB P35869"
result = "77%"

[[record]]
molecule = "NC(=O)Cc1c[nH]c2ccccc12 [IAD, indole-3-acetamide]"
target_system = "UniProtKB P35869"
result = "73%"

[[record]]
molecule = "Cc1c[nH]c2ccccc12 [3MI, skatole]"
target_system = "UniProtKB P35869"
result = "72%"

